Cited source for all entries: patent US8017612B2

Target: HCV polymerase (NS5B) type 1b (Hepatitis C virus genotype 1b)
Construct: a region encoding NS5B (J Virol 1991 March, 65(3), 1105-13, 544 amino acids after deletion of 47 amino acids on the C-terminal); 6xHis (C); made in house; host or cells: Escherichia coli
Experiment: Assay of enzyme (HCV polymerase) inhibitory activity, type 1b enzyme
Format: biochemical, HCV BK strain (type 1b)
Conditions: HCV polymerase inhibitory activity IC50, 1b, type 1b enzyme
pIC50: −log10 of the molar value.
observable: pIC50

Quick check: pIC50 of CCCc1ccc(CNC(=O)[C@H]2CN(c3nc(C)c(S(=O)(=O)N(C)C)s3)CCN2S(=O)(=O)c2ccc(OC(F)(F)F)cc2)cc1 [Example 829] ? > 7.00

Try the molecule O=C(NCc1ccc(OC(F)(F)F)cc1)[C@H]1CN(c2nn3c(=O)c(C(F)(F)F)nnc3s2)CCN1S(=O)(=O)c1ccc(OC(F)(F)F)cc1 [Example 1031] 6.00 to 7.00

Try the molecule O=C(NCc1ccc(OC(F)(F)F)cc1)[C@H]1CN(c2cnc3cnc(C(F)(F)F)nc3n2)CCN1S(=O)(=O)c1ccc(OC(F)(F)F)cc1 [Example 798] > 7.00

Try the molecule O=C(NCc1ccc(OCF)cc1)[C@H]1CN(c2nc3nc(Cl)ncc3s2)CCN1S(=O)(=O)c1ccc(OC(F)(F)F)cc1 [Example 966] > 7.00

Try the molecule CCCc1ccc(CNC(=O)[C@H]2CN(c3cnc(C(=O)O)cn3)CCN2S(=O)(=O)c2ccc(Br)s2)cc1 [Example 699] > 7.00

Try the molecule CCCc1ccc(CNC(=O)[C@H]2CN(c3nc(Cl)c(C(=O)O)s3)CCN2S(=O)(=O)c2ccc(CC)cc2)cc1 [Example 868] > 7.00

Try the molecule O=C(NCc1ccc(OC(F)(F)F)cc1)[C@H]1CN(c2nc3cnnc(Cl)c3s2)CCN1S(=O)(=O)c1ccc(C(F)(F)F)cc1 [Example 896] > 7.00

Try the molecule CC(=O)N1CCN(S(=O)(=O)c2ccc(OC(F)(F)F)cc2)[C@@H](C(=O)NC[C@H]2CC[C@H](C(=O)O)CC2)C1 [Example 669] < 6.00

Try the molecule O=C(NCc1ccc(OC(F)(F)F)cc1)[C@H]1CN(c2nc3nc(CN4CCCC4)ncc3s2)CCN1S(=O)(=O)c1ccc(OC(F)(F)F)cc1 [Example 1056] > 7.00

Try the molecule Nc1nc(C(F)(F)F)nc2nc(N3CCN(S(=O)(=O)c4ccc(OC(F)(F)F)cc4)[C@@H](C(=O)NCc4ccc(OC(F)(F)F)cc4)C3)sc12 [Example 1021] > 7.00

Try the molecule CN(C)C(=O)c1ncc2sc(N3CCN(S(=O)(=O)c4ccc(OC(F)(F)F)cc4)[C@@H](C(=O)NCc4ccc(OC(F)(F)F)cc4)C3)nc2n1 [Example 1041] > 7.00

Try the molecule CCCc1ccc(CNC(=O)[C@H]2CN(c3nc4c(C(=O)OCC)cncc4s3)CCN2S(=O)(=O)c2ccc(OC(F)(F)F)cc2)cc1 [Example 1083] > 7.00

###

Molecular target: HCV polymerase (NS5B) type 1b (Hepatitis C virus genotype 1b, UniProt P26663)
Construct: a region encoding NS5B (J Virol 1991 March, 65(3), 1105-13, 544 amino acids after deletion of 47 amino acids on the C-terminal); 6xHis (C); made in house; host or cells: Escherichia coli
Sequence (P26663 2420-2963): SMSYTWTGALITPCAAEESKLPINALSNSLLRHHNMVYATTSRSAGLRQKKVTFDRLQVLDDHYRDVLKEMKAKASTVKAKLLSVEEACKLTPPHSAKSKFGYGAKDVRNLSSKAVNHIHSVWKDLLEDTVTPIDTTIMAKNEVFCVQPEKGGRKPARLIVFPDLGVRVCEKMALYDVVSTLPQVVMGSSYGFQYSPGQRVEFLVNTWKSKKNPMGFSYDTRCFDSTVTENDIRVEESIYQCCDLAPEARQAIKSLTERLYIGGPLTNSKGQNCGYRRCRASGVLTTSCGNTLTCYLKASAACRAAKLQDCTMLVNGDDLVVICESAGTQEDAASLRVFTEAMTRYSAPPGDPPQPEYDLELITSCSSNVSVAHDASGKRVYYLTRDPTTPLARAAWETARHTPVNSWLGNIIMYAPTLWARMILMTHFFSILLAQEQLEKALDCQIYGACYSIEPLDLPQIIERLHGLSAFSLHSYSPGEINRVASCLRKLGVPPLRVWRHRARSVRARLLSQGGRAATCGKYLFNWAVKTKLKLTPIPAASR
Experiment: Assay of enzyme (HCV polymerase) inhibitory activity, type 1b enzyme
Format: biochemical, HCV BK strain (type 1b)
Settings: HCV polymerase inhibitory activity IC50, 1b, type 1b enzyme
Kindly supply the reported IC50 values for the records listed here.

Quick check: IC50 of O=C(NCc1ccc(OC(F)(F)F)cc1)[C@H]1CN(c2cnc3cncc(Br)c3n2)CCN1S(=O)(=O)c1ccc(OC(F)(F)F)cc1 ? < 100 nM

Try the compound O=C(NCc1ccc(OC(F)F)cc1)[C@H]1CN(c2nc3ncncc3s2)CCN1S(=O)(=O)c1ccc(OC(F)F)cc1 < 100 nM

Try the compound O=C(NCc1ccc(OC(F)(F)F)cc1)[C@H]1CN(c2cnc3cncnc3n2)CCN1S(=O)(=O)c1ccc(Br)s1 < 100 nM

Try the compound O=C(NCc1ccc(OC(F)F)cc1)[C@H]1CN(c2nc3nc(Cl)ncc3s2)CCN1S(=O)(=O)c1ccc(OC(F)F)cc1 < 100 nM

Try the compound CCC(F)(F)c1ccc(CNC(=O)[C@H]2CN(C(=O)/C=C\C(=O)O)CCN2S(=O)(=O)c2ccc(OC(F)(F)F)cc2)cc1 > 1000 nM

Try the compound CC(C)Nc1ncc2sc(N3CCN(S(=O)(=O)c4ccc(OC(F)(F)F)cc4)[C@@H](C(=O)NCc4ccc(OC(F)(F)F)cc4)C3)nc2n1 < 100 nM
